# target: Aurora-A kinase (Homo sapiens)
# Construct: purchased Millipore (KinaseProfiler Service); also Reaction Biology Corp. (Kinase HotSpot)
# Sequence (O14965 1-403): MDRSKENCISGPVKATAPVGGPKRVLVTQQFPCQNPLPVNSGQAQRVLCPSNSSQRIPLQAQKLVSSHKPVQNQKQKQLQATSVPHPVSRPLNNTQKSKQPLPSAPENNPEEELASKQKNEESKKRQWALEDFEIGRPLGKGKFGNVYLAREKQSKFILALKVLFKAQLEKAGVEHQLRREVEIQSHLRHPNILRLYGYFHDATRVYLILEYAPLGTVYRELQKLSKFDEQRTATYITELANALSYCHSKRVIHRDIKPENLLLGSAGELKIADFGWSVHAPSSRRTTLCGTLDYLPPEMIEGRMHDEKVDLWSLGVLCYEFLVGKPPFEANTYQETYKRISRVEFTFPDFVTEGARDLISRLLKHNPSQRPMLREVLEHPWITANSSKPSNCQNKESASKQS
# testDetails: Aurora-A kinase assay (KinaseProfiler / Kinase Hotspot)
# Format: biochemical
# statedConditions: read-out: % Inhibition Auroro-A
Record form. Attribute: inhibition at 1 µM. Fill in for each entry.

// sample CN1CCN(c2nc(Nc3ncc(-c4cccs4)s3)nc(Sc3ccccc3)n2)CC1 [Example 21] , its inhibition at 1 µM was < 50%

// sample CN1CCN(c2nc(Nc3ncc(-c4cccs4)s3)nc(Sc3cccc(NC(=O)C4CC4)c3)n2)CC1 [Example 31] , its inhibition at 1 µM was < 50%

// sample CN1CCN(c2nc(Nc3ccccc3)nc(Nc3cc(-c4ccco4)[nH]n3)n2)CC1 [Example 20] , its inhibition at 1 µM was 50 to 90%

// sample CN1CCN(c2nc(Nc3cc(-c4ccco4)[nH]n3)nc(Sc3cc(Cl)cc(Cl)c3)n2)CC1 [Example 22] , its inhibition at 1 µM was 50 to 90%

// sample CN1CCN(c2nc(Nc3cc(-c4ccco4)[nH]n3)nc(Sc3ccc(C(F)(F)F)cc3)n2)CC1 [Example 19] , its inhibition at 1 µM was 50 to 90%

// sample CN1CCN(c2nc(Nc3cc(-c4cccs4)[nH]n3)nc(Sc3ccc(NC(=O)C4CC4)cc3)n2)CC1 [Example 6] , its inhibition at 1 µM was 50 to 90%

// sample CN1CCN(c2nc(Nc3cc(-c4ccco4)[nH]n3)nc(Sc3cccc(NC(=O)C4CC4)c3)n2)CC1 [Example 30] , its inhibition at 1 µM was < 50%

// sample CN1CCN(c2nc(Nc3cc(-c4ccco4)[nH]n3)nc(N(C)c3ccccc3)n2)CC1 [Example 27] , its inhibition at 1 µM was 50 to 90%
